- method-summary: qHTS RealTime-Glo MT Cell Viability Assay in HEK293 cells - 32 hour (AID 1224868); further: nearly all actives have a fitted effect of over 50% in size
- test-settings: RealTime-Glo luminescence; series mostly up to 76.8 µM
Results filed as inconclusive are left out. Active and inactive are the calls of the source. The call rests on the fitted dose curve; in most records, active means well fitted cell-killing curve with a large enough effect in the repeat runs; inconclusive means weak or mixed curves, or effect the other way; inactive means flat fitted curve, though single readings scatter.
Allowed answers: active, inactive

{"compound": "CCOC(=O)C1=NN(c2ccccc2)C(=O)C1", "group-label": "inactive"}
{"compound": "CCCCOC(=O)c1ccccc1C(=O)OCC(CC)CCCC (stereo unspecified)", "group-label": "inactive"}
{"compound": "O=C(O)Cc1cc(I)c(Oc2ccc(O)c(I)c2)c(I)c1", "group-label": "inactive"}
{"compound": "CN1CCC(OC(c2ccccc2)c2ccccc2)CC1", "group-label": "inactive"}
{"compound": "O=C(O)Cc1sc(-c2ccccc2)nc1-c1ccc(Cl)cc1", "group-label": "inactive"}
{"compound": "CCN1CCC[C@H]1CNC(=O)c1c(OC)ccc(Br)c1OC", "group-label": "inactive"}
{"compound": "CCCCCC/C=C/C=O", "group-label": "inactive"}
{"compound": "O=C(NN1CCCC1)NS(=O)(=O)c1ccc(Cl)cc1", "group-label": "inactive"}
{"compound": "CCN(CC)C(C)CN1c2ccccc2Sc2ccccc21 (stereo unspecified)", "group-label": "inactive"}
{"compound": "C=CC(=O)OCC(C)OCC(C)OCC(C)OC(=O)C=C (stereo unspecified)", "group-label": "active"}

stdin: Identify the outcome logged in this assay for the compound shown: `COC(Cc1ccccc1)OC`
stdout: inactive

stdin: Entry N[C@H]1C(O)O[C@H](CO)[C@H](O)[C@@H]1O (stereo partly specified) : call = ?
stdout: inactive

stdin: What is the recorded call for this compound in the test? `C=Cc1c(C)c2cc3[nH]c(cc4nc(cc5nc(cc1[nH]2)C(C)=C5CCC(=O)O)C(CCC(=O)O)=C4C)c(C)c3C=C`
stdout: inactive

stdin: Given `CCCCCCCCCCCCC(=O)O` , state the outcome it received in this test.
stdout: inactive

stdin: How was `O=c1c2ccccc2nnn1CCl` classified in this test?
stdout: inactive

stdin: What outcome does the record of this test show for `c1ccc(-c2nc[nH]c2-c2ccccc2)cc1` ?
stdout: inactive

stdin: Per the records of this test, what outcome belongs to `CCCCCCOC(=O)CCC` ?
stdout: inactive

stdin: Kindly provide the recorded test outcome for the following compound: C1CCC2OC2C1 (stereo unspecified)
stdout: inactive

stdin: Hey, what did the test say about `Cc1ccc(C(N)=O)cc1N` ?
stdout: inactive

stdin: Record lookup: outcome of this test for `O=c1[nH]cnc2ccccc12` ?
stdout: inactive

###

- method-summary: qHTS assay to identify small molecule antagonists of the estrogen related receptor (ERR) signaling pathway from Tox21 library - cell viability counter screen (AID 1224834); further: nearly all actives have a fitted effect of over 30% in size; further: potency means the concentration at half of the fitted maximal effect
- test-settings: ERR reporter cells viability, CellTiter-Fluor, 17.5 h; series mostly up to 92.4 µM
Results filed as inconclusive are left out. Calls of active or inactive are those of the source. Calls come from the whole dose curve; as a rule, active = well fitted cell-killing curve with a large enough effect in the repeat runs; inconclusive = weak or mixed curves; inactive = flat fitted curve, though single readings scatter.
quantity-kind: Potency

Please review the entries below; each comes with its answer.
{"molecule": "CCCCCCCCCC(=O)OCC", "Potency": "inactive"}
{"molecule": "SC1CCCC1", "Potency": "inactive"}
{"molecule": "OCCC1CCCCN1 (configuration not stated)", "Potency": "inactive"}
{"molecule": "COc1ccc(C(C)=O)cc1", "Potency": "inactive"}
{"molecule": "CC(C)(C)c1cc(O)c(C(C)(C)C)cc1O", "Potency": "48.6 µM (active)"}
{"molecule": "CN(c1nccc(=O)[nH]1)C1CCN(c2nc3ccccc3n2Cc2ccc(F)cc2)CC1", "Potency": "inactive"}
{"molecule": "C#CCOC(=O)[C@@H](C)Oc1ccc(Oc2ncc(Cl)cc2F)cc1", "Potency": "inactive"}
{"molecule": "CCCCOc1ccc(CC(=O)NO)cc1", "Potency": "18.8 µM (active)"}

stdin: Can you share its Potency? I mean this molecule: `CCCC[C@H]1CN(CC2CCOCC2)C(=O)OC12CCN(C1(C)CCN(C(=O)c3c(C)ncnc3C)CC1)CC2`
stdout: inactive

stdin: Entry `Cc1ccc(O)c([C@H](CCN(C(C)C)C(C)C)c2ccccc2)c1` has what Potency?
stdout: inactive

stdin: I'd like to know its Potency. The molecule in question is `O=S1(=O)N=C(O)c2ccccc21`
stdout: inactive

stdin: Name the reported Potency value associated with the molecule `N#Cc1c(F)cccc1F`
stdout: inactive

stdin: Quick check: Potency of `CC(C)CC=O` ?
stdout: inactive

stdin: Fill in the blank: the reported Potency of `Cn1c(NCCN(CCO)CCCc2ccc([N+](=O)[O-])cc2)cc(=O)n(C)c1=O` is ____.
stdout: inactive

stdin: I would be grateful if you could share the reported Potency for `ClC(Cl)(Cl)c1ccc(C(Cl)(Cl)Cl)cc1` .
stdout: inactive

stdin: Fill in: Potency of CC(C(=O)O)c1ccc(C(=O)c2ccccc2)s1 (configuration not stated) is ___
stdout: inactive

stdin: Endpoint output: Potency of `CCCCCCCCCCCCCCCBr` . Value?
stdout: inactive

stdin: What measured Potency goes with `CC(=O)CC(=O)c1ccccc1` ?
stdout: inactive

stdin: If you can, please state the reported Potency value of `CCOC(=O)[C@H](CCc1ccccc1)N[C@H]1CCc2ccccc2N(CC(=O)O)C1=O` .
stdout: 26.6 µM (active)

stdin: Look up Potency for this molecule: `COc1ccccc1OC(=O)Oc1ccccc1OC`
stdout: inactive

stdin: Consider the molecule `CCOC(=S)SSC(=S)OCC` and give its measured Potency.
stdout: inactive

stdin: Entry CC(C)=CCCC(C)CC=O (configuration not stated) : reported Potency = ?
stdout: inactive

stdin: I'd like to know its Potency. The molecule in question is O=C=NC1CCC(CC2CCC(N=C=O)CC2)CC1 (configuration not stated)
stdout: inactive

stdin: Potency lookup needed for `O=C(NN1CCCC1)NS(=O)(=O)c1ccc(Cl)cc1` , thanks.
stdout: inactive

stdin: Consider the molecule shown here: `CCN1CCC[C@H]1CNC(=O)c1c(OC)ccc(Br)c1OC` What is its recorded Potency?
stdout: inactive

stdin: Consider the molecule shown here: `CC(=O)c1c(C)c([N+](=O)[O-])c(C(C)(C)C)c([N+](=O)[O-])c1C` What is its recorded Potency?
stdout: inactive

stdin: Name the reported Potency value associated with the molecule `CN(C)CC[C@@H](c1ccc(Br)cc1)c1ccccn1`
stdout: inactive

stdin: Sample CCCCCCCCCCCCCCC1CO1 (configuration not stated) — what was its Potency?
stdout: inactive

###

- method-summary: qHTS assay to identify small molecule HDAC inhibitors (AID 1259364);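 further: wild-type HCT-116 cells with endogenous class I/II HDAC activity; nearly all actives have a fitted effect of over 45% in size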
- test-settings: HCT-116 HDAC-Glo I/II luminescence, 2 h; series mostly up to 92.4 µM
- Excerpt: U.S. Tox21 Program National Center for Advancing Translational Sciences [NCATS] NIH Chemical Genomics Center [NCGC] U.S. Environmental Protection Agency [EPA] National Institutes of Environmental Health Sciences [NIEHS] National Toxicology Program [NTP] U.S. Food and Drug Administration [FDA] Tox21 Assay Overview: Histone deacetylases (HDACs) are a group of epigenetic enzymes that regulate gene expression by histone deacetylation. […]
Records with an inconclusive call do not appear. Active and inactive are the calls of the source. The call rests on the fitted dose curve; in most records, active means well fitted inhibition curve with a large enough effect in the repeat runs; inconclusive means weak or mixed curves; inactive means flat fitted curve, though single readings scatter.
Result category, one only: true (active), false (inactive)

Some entries whose results are on file:
{"molecule": "CCC(C)N(C)C(=O)c1cc2ccccc2c(-c2ccccc2Cl)n1 (stereo not drawn)", "group-label": "false"}
{"molecule": "CC(C(=O)O)c1ccc(-c2ccccc2)c(F)c1 (stereo not drawn)", "group-label": "true"}
{"molecule": "C=CC(=O)OCC(C)OCC(C)OCC(C)OC(=O)C=C (stereo not drawn)", "group-label": "false"}

stdin: So what was the verdict on `CC(C)CCCCCCOC(=O)c1ccc(C(=O)OCCCCCCC(C)C)c(C(=O)OCCCCCCC(C)C)c1` in this test?
stdout: false

stdin: # fetch the recorded call for O=C(O)C1CCC(C(=O)O)CC1 (stereo not drawn) here
stdout: false

stdin: Call for entry `CCOC(=O)CC(C)C` :
stdout: false

stdin: How was `Cn1c(NCCN(CCO)CCCc2ccc([N+](=O)[O-])cc2)cc(=O)n(C)c1=O` classified in this test?
stdout: false

stdin: Which outcome did this test record for the molecule `CC(=O)OC/C=C/c1ccccc1` ?
stdout: false

stdin: How was `O=C(/C=C/c1ccc(O)c(O)c1)O[C@@H]1C[C@](O)(C(=O)O)C[C@@H](O)[C@H]1O` classified in this test?
stdout: false

stdin: Each molecule tested received a call. Report the one for `O=C1CCCCCO1` .
stdout: false

stdin: Fill in: this test's call for `CC1(C)CCC(C)(C)c2cc(NC(=O)c3ccc(C(=O)O)cc3)ccc21` is ___
stdout: false

stdin: What did the test return for `CC(=O)OCCc1ccccc1` ?
stdout: false

stdin: Answer briefly: the call reported for `CN1CCC[C@@H]1c1cccnc1` in this assay.
stdout: false
